- Tested on: HERV K (HML2)
- measurementDescription: Reverse transcriptase activity in supernatants of drug-treated NCCIT cells (Reverse Transcription Assay Kit)
- Format: cell-based, human
- conditionInfo: 7 days, increasing doses of drug, supernatant, FIGS. 4A-I
- Experimental: HIV antivirals were assayed to determine which antiviral agents have an antiviral effect against HERV K (HML2). The NCCIT cell line derived from a teratocarcinoma produces many HERV K (HML2) viral particles. […] Supernatant was assessed for Reverse Transcriptase Activity using the Reverse Transcription Assay Kit (Invitrogen) as described by the manufacturer. […] In a similar way, quantities of HERV—K type 2 proviruses were measured by Real Time PCR using 500 ng of isolated DNA.
property: HERV K (HML2) RT activity

>  <molecule>
CC(C)OC(=O)OCOP(=O)(CO[C@H](C)Cn1cnc2c(N)ncnc21)OCOC(=O)OC(C)C

>  <property>
HERV K (HML2) RT activity

>  <assayResult>
reduction

$$$$
>  <molecule>
Nc1ccn([C@H]2CC[C@@H](CO)O2)c(=O)n1

>  <property>
HERV K (HML2) RT activity

>  <assayResult>
reduction

$$$$
>  <molecule>
O=c1nc(NO)ccn1[C@@H]1O[C@H](CO)[C@@H](O)[C@H]1O [β-D hydroxycytidine, β-d hydroxy cytidine]

>  <property>
HERV K (HML2) RT activity

>  <assayResult>
reduction

$$$$
>  <molecule>
O=c1[nH]cnc2c1ncn2[C@H]1CC[C@@H](CO)O1

>  <property>
HERV K (HML2) RT activity

>  <assayResult>
reduction

$$$$
>  <molecule>
Nc1nc(NC2CC2)c2ncn([C@H]3C=C[C@@H](CO)C3)c2n1

>  <property>
HERV K (HML2) RT activity

>  <assayResult>
reduction

$$$$
>  <molecule>
Cc1cn([C@H]2C=C[C@@H](CO)O2)c(=O)[nH]c1=O

>  <property>
HERV K (HML2) RT activity

>  <assayResult>
reduction

$$$$
>  <molecule>
Cc1cn([C@H]2C[C@H](N=[N+]=[N-])[C@@H](CO)O2)c(=O)[nH]c1=O

>  <property>
HERV K (HML2) RT activity

>  <assayResult>
reduction

$$$$
>  <molecule>
Nc1nc(=O)n([C@@H]2CS[C@H](CO)O2)cc1F

>  <property>
HERV K (HML2) RT activity

>  <assayResult>
reduction

$$$$
